target: T1, biotinylated recombinant human TNFα (human, UniProt P01375 77-233, biotinylated (D-biotinyl-ε-aminocaproic acid N-hydroxysuccinimide ester, 2:1 molar ratio of biotin to rhTNFα)); test: SPR (BIAcore), biotinylated rhTNFα, scFv
T1 construct: mature; Immobilized via streptavidin on the BIAcore chip; also called biotinylated rhTNFα; biotinylated rhTNF
T1 sequence (P01375 77-233 limits assumed): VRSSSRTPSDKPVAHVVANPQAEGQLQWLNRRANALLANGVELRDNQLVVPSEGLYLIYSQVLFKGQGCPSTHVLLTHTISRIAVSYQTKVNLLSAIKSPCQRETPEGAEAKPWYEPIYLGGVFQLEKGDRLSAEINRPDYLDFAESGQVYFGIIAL
measure: koff
Write down the value, and be sure its unit follows.

Name the reported koff value associated with the binder 2SD4 VH/VLLOG9 scFv (scFv, V domains shown, scFv) VH: QVQLVESGGGLVQPGRSLRLSCAASGFTFDDYAMHWVRQAPGKGLDWVSAITWNSGHIDYADSVEGRFAVSRDNAKNALYLQMNSLRPEDTAVYYCTKASYLSTSSSLDNWGQGTLVTVSS VL: DIQMTQSPSSLSASIGDRVTITCRASQGIRNYLAWYQQKPGKAPKLLIYAASTLQSGVPSRFSGSGSGTDFTLTISSLQPEDVATYYCQKYTSAPYTFGQGTKVEIK
0.0146 s⁻¹

Data provenance: patent US20070249813A1
